Reference for the values: patent US20130330346A1

Target System: T1, Cynomolgus CXCR2 (cynomolgus, UniProt Q28519 3-353 (rhesus entry))
T1 construct: On transfected HEK293T or RBL-2H3 cells; native on cynomolgus neutrophils in the WBSC assay; also called cCXCR2; cynoCXCR2
T1 chain: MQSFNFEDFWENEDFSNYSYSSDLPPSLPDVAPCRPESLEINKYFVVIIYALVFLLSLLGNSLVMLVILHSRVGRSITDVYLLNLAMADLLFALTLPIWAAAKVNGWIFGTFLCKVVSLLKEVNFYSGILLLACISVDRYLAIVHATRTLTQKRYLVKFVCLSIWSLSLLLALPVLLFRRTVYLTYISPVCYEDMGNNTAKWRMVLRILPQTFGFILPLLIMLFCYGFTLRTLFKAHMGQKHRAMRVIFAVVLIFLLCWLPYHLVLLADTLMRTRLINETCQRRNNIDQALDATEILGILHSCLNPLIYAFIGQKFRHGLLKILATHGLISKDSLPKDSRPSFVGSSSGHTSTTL
Method Summary: FACS competition vs 3 nM FMAT-Blue Gro-α
Metric: % inhibition of max (%)
Record the value in %, omitting the unit from your answer.

Example cases with answers are listed next.
- CXCR20026 (bispecific antibody, Biparatopic: two VHH joined by a GlySer linker; also called 163E3-35GS-127D1; 163E3-127D1; not shown: C-terminal c-myc tag and His6 tag coded by pAX100) EVQLVESGGGLVQPGGSLRLSCVASGRIFSSNAMGWFRQAPGKEREFVAAITWRSGGSAYYADSAKGRFTISRDNAKNTVYLQMNSLKPEDTAVYYCAAGGSSWLSFPPDYWGQGTQVTVSSGGGGSGGGGSGGGGSGGGGSGGGGSGGGGSGGGGSEVQLVESGGGLVQAGESLRLSCAASGSTFDFKVMGWYRQPPGKQREGVAAIRLSGNMHYAESVKGRFTISKANAKNTVYLQMNSLRPEDTAVYYCKVNIRGQDYWGQGTQVTVSS: 99
- CXCR20017 (other, Two different VHH joined by a GlySer linker; also called 97A9-35GS-137B7; not shown: C-terminal c-myc tag and His6 tag coded by pAX100) EVQLVESGGGLVQPGGSLRLSCVASGSIVRINTMGWYRQTPGKQRELVADITSGGNINYIDAVKGRFTISRDNTKNTVYLQMNSLKPEDTAVYYCNAEIVVLVGVWTQRARTGNYWGQGTQVTVSSGGGGSGGGGSGGGGSGGGGSGGGGSGGGGSGGGGSEVQLVESGGGLVQPGGSVRLSCVASGIIFRLSALGWTRQGPGKAREWVAGINSDGTTNYADPVKGRFTISRDNAKNTIYLHMDMLKPEDTAVYYCASGKYRGQGTQVTVSS: 73
- CXCR20011 (VHH, Bivalent: two VHH joined by a GlySer linker; also called 97A9-35GS-97A9; not shown: C-terminal c-myc tag and His6 tag coded by pAX100) EVQLVESGGGLVQPGGSLRLSCVASGSIVRINTMGWYRQTPGKQRELVADITSGGNINYIDAVKGRFTISRDNTKNTVYLQMNSLKPEDTAVYYCNAEIVVLVGVWTQRARTGNYWGQGTQVTVSSGGGGSGGGGSGGGGSGGGGSGGGGSGGGGSGGGGSEVQLVESGGGLVQPGGSLRLSCVASGSIVRINTMGWYRQTPGKQRELVADITSGGNINYIDAVKGRFTISRDNTKNTVYLQMNSLKPEDTAVYYCNAEIVVLVGVWTQRARTGNYWGQGTQVTVSS: 60
- CXCR20018 (other, Two different VHH joined by a GlySer linker; also called 137B7-35GS-97A9; not shown: C-terminal c-myc tag and His6 tag coded by pAX100) EVQLVESGGGLVQPGGSVRLSCVASGIIFRLSALGWTRQGPGKAREWVAGINSDGTTNYADPVKGRFTISRDNAKNTIYLHMDMLKPEDTAVYYCASGKYRGQGTQVTVSSGGGGSGGGGSGGGGSGGGGSGGGGSGGGGSGGGGSEVQLVESGGGLVQPGGSLRLSCVASGSIVRINTMGWYRQTPGKQRELVADITSGGNINYIDAVKGRFTISRDNTKNTVYLQMNSLKPEDTAVYYCNAEIVVLVGVWTQRARTGNYWGQGTQVTVSS: 47
- CXCR20036 (other, Biparatopic: two VHH joined by a GlySer linker; also called 54B12-35GS-163D2; 54B12-163D2; not shown: C-terminal c-myc tag and His6 tag coded by pAX100) EVQLVESGGGLVQAGGSLTLSCAVSGSTFRINTMGWYRRAPGKQRELVAARDRGGYINYVDSVKGRFTVSRDNAKPTMYLQMNSLKPEDTAVYYCHAGTQDRTGRNFDRWGQGTQVTVSSGGGGSGGGGSGGGGSGGGGSGGGGSGGGGSGGGGSEVQLVESGGGLVQAGGSLRLSCAASGRTFSDYAMGWFRQAPGKEREFVAAITWNGGRVFYTASVKGRFTISRDNAKNTMYLQMNSLKPEDTAVYYCAADKDRRTDYLGHPVAYWGQGTQVTVSS: 98

Please find the next binder below.
[Q] Quick one: % inhibition of max of CXCR20020 (bispecific antibody, Biparatopic: two VHH joined by a GlySer linker; also called 127D1-35GS-163D2; 127D1-163D2; not shown: C-terminal c-myc tag and His6 tag coded by pAX100) EVQLVESGGGLVQAGESLRLSCAASGSTFDFKVMGWYRQPPGKQREGVAAIRLSGNMHYAESVKGRFTISKANAKNTVYLQMNSLRPEDTAVYYCKVNIRGQDYWGQGTQVTVSSGGGGSGGGGSGGGGSGGGGSGGGGSGGGGSGGGGSEVQLVESGGGLVQAGGSLRLSCAASGRTFSDYAMGWFRQAPGKEREFVAAITWNGGRVFYTASVKGRFTISRDNAKNTMYLQMNSLKPEDTAVYYCAADKDRRTDYLGHPVAYWGQGTQVTVSS ?
[A] 98.5
